Please provide measured concentration at 1 h for the entries that follow.
Experiment: Drug level in mouse brain at 5 mg/kg, iv after 1 hr
Type: ADME, organism-based
Parameters: dose 5 mg/kg, route intravenous
Settings: read-out: Drug uptake
Hi! Could you send only the number? It should be in ng/g, unit omitted.

Specify measured concentration at 1 h for CNCCN[C@H](c1cccc(F)c1N1CCN(C(=O)[C@H](C)Cc2ccc(Cl)cc2)CC1)C(C)C . 53

Specify measured concentration at 1 h for COc1cc(Cl)ccc1C[C@@H](C)C(=O)N1CCN(c2c(F)cccc2[C@@H](NC(=O)C2CNC2)C(C)C)CC1 . 51

Specify measured concentration at 1 h for COc1cc(Cl)ccc1C[C@@H](C)C(=O)N1CCN(c2ccc(Cl)cc2[C@@H](NC(=O)C2CNC2)C(C)C)CC1 . 61

Specify measured concentration at 1 h for CNCC(=O)N[C@H](c1cc(Cl)ccc1N1CCN(C(=O)[C@H](C)Cc2ccc(Cl)cc2OC)CC1)C(C)C . 334

Specify measured concentration at 1 h for CNCC(=O)N[C@H](c1cccc(F)c1N1CCN(C(=O)[C@H](C)Cc2ccc(Cl)cc2Cl)CC1)C(C)C . 85

Specify measured concentration at 1 h for COc1cc(Cl)ccc1C[C@@H](C)C(=O)N1CCN(c2ccc(Cl)cc2[C@@H](NC(=O)[C@@H](C)N)C(C)C)CC1 . 95

Specify measured concentration at 1 h for CNCC(=O)N[C@H](c1cc(C)ccc1N1CCN(C(=O)[C@H](C)Cc2ccc(Cl)cc2F)CC1)C(C)C . 59

----------
Experiment: Drug level in LLC tumor bearing C57BL/6J mouse brain at 20 mg/kg, po twice daily after 24 hrs on day 4 of administration measured 14 hrs after last dose
Format: ADME, organism-based
Design: dose 20 mg/kg, route oral
MEASURED ENDPOINT: concentration at 14 h (ng/g)
Hi! Could you send only the number? It should be in ng/g, unit omitted.

Specify measured concentration at 14 h for Cc1ccc(N2CCN(C(=O)[C@H](C)Cc3ccc(Cl)cc3)CC2)c([C@@H](NC(=O)CCN(C)C)C(C)C)c1 . 4.5

----------
Experiment: Drug level in LLC tumor bearing C57BL/6J mouse plasma at 20 mg/kg, po twice daily after 2 hrs on day 1 of administration
Assay type: ADME, organism-based
Design: dose 20 mg/kg, route oral
MEASURED ENDPOINT: concentration at 2 h (ng/mL)
Hi! Could you send only the number? It should be in ng/mL, unit omitted.

Specify measured concentration at 2 h for Cc1ccc(N2CCN(C(=O)[C@H](C)Cc3ccc(Cl)cc3)CC2)c([C@@H](NC(=O)CCN(C)C)C(C)C)c1 . 360

----------
Experiment: Ratio of drug level in brain to plasma in mouse at 5 mg/kg, iv after 1 hr
Format: ADME, organism-based
Design: dose 5 mg/kg, route intravenous
Please provide measured Kp at 1 h for the entries that follow.
Just the number, please.

Specify measured Kp at 1 h for COc1cc(Cl)ccc1C[C@@H](C)C(=O)N1CCN(c2c(F)cccc2[C@@H](NC(=O)C2CNC2)C(C)C)CC1 . 0.1

Specify measured Kp at 1 h for CNCC(=O)N[C@H](c1cccc(F)c1N1CCN(C(=O)[C@H](C)Cc2ccc(Cl)cc2)CC1)C(C)C . 0.6

Specify measured Kp at 1 h for COc1cc(Cl)ccc1C[C@@H](C)C(=O)N1CCN(c2ccc(Cl)cc2[C@@H](NC(=O)C2CNC2)C(C)C)CC1 . 0.1

Specify measured Kp at 1 h for CC(C)[C@H](NC(=O)C1CN(C)C1)c1cc(Cl)ccc1N1CCN(C(=O)[C@H](C)Cc2ccc(Cl)cc2)CC1 . 0.1

Specify measured Kp at 1 h for CNCC(=O)N[C@H](c1cccc(F)c1N1CCN(C(=O)[C@H](C)Cc2ccc(Cl)cc2Cl)CC1)C(C)C . 0.3

Specify measured Kp at 1 h for COc1cc(Cl)ccc1C[C@@H](C)C(=O)N1CCN(c2ccc(Cl)cc2[C@@H](NC(=O)[C@@H](C)N)C(C)C)CC1 . 0.4

Specify measured Kp at 1 h for CC(C)[C@H](NC(=O)CCN(C)C)c1cc(Cl)ccc1N1CCN(C(=O)[C@H](C)Cc2ccc(Cl)cc2)CC1 . 1.9

Specify measured Kp at 1 h for CC(C)[C@H](NC(=O)CCN(C)C)c1cccc(F)c1N1CCN(C(=O)[C@H](C)Cc2ccc(Cl)cc2)CC1 . 0.6

Specify measured Kp at 1 h for CNCC(=O)N[C@H](c1cccc(F)c1N1CCN(C(=O)[C@H](C)Cc2ccc(Cl)cc2OC)CC1)C(C)C . 0.5

Specify measured Kp at 1 h for CNCC(=O)N[C@H](c1cc(Cl)ccc1N1CCN(C(=O)[C@H](C)Cc2ccc(Cl)cc2)CC1)C(C)C . 0.7

Specify measured Kp at 1 h for CNCC(=O)N[C@H](c1cc(Cl)ccc1N1CCN(C(=O)[C@H](C)Cc2ccc(Cl)cc2OC)CC1)C(C)C . 1.3

Specify measured Kp at 1 h for CNCCN[C@H](c1cccc(F)c1N1CCN(C(=O)[C@H](C)Cc2ccc(Cl)cc2)CC1)C(C)C . 0.4

Specify measured Kp at 1 h for Cc1ccc(N2CCN(C(=O)[C@H](C)Cc3ccc(Cl)cc3)CC2)c([C@@H](NC(=O)CCN(C)C)C(C)C)c1 . 0.1

Specify measured Kp at 1 h for CNCC(=O)N[C@H](c1cc(C)ccc1N1CCN(C(=O)[C@H](C)Cc2ccc(Cl)cc2F)CC1)C(C)C . 0.1

----------
Experiment: physchem
Conditions: buffer, pH 7.4
Please provide measured logD for the entries that follow.
Just the number, please.

Specify measured logD for CNCCN[C@H](c1cc(C)ccc1N1CCN(C(=O)[C@H](C)Cc2ccc(Cl)cc2F)CC1)C(C)C . 2.5

Specify measured logD for CNCC(=O)N[C@H](c1cc(Cl)ccc1N1CCN(C(=O)[C@H](C)Cc2ccc(Cl)cc2)CC1)C(C)C . 4.3

Specify measured logD for COc1cc(Cl)ccc1C[C@@H](C)C(=O)N1CCN(c2ccc(Cl)cc2[C@@H](NC(=O)C2CNC2)C(C)C)CC1 . 2.3

Specify measured logD for CNCC(=O)N[C@H](c1cc(C)ccc1N1CCN(C(=O)[C@H](C)Cc2ccc(Cl)cc2F)CC1)C(C)C . 4

Specify measured logD for COc1cc(Cl)ccc1C[C@@H](C)C(=O)N1CCN(c2c(F)cccc2[C@@H](NC(=O)C2CNC2)C(C)C)CC1 . 2.6

Specify measured logD for Cc1ccc(N2CCN(C(=O)[C@H](C)Cc3ccc(Cl)cc3)CC2)c([C@@H](NC(=O)CCN(C)C)C(C)C)c1 . 3.4

Specify measured logD for CNCC(=O)N[C@H](c1cccc(F)c1N1CCN(C(=O)[C@H](C)Cc2ccc(Cl)cc2OC)CC1)C(C)C . 3.1

Specify measured logD for Cc1ccc(N2CCN(C(=O)[C@H](C)Cc3ccc(Cl)cc3)CC2)c([C@@H](NC(=O)CCN)C(C)C)c1 . 2.4

Specify measured logD for CNCC(=O)N[C@H](c1cccc(F)c1N1CCN(C(=O)[C@H](C)Cc2ccc(Cl)cc2Cl)CC1)C(C)C . 4.3

Specify measured logD for CNCC(=O)N[C@H](c1cc(Cl)ccc1N1CCN(C(=O)[C@H](C)Cc2ccc(Cl)cc2OC)CC1)C(C)C . 3.5

Specify measured logD for CNCC(=O)N[C@H](c1cccc(F)c1N1CCN(C(=O)[C@H](C)Cc2ccc(Cl)cc2)CC1)C(C)C . 2.4

Specify measured logD for CC(C)[C@H](NC(=O)CCN(C)C)c1cccc(F)c1N1CCN(C(=O)[C@H](C)Cc2ccc(Cl)cc2)CC1 . 2.4

Specify measured logD for Cc1ccc(N2CCN(C(=O)[C@H](C)Cc3ccc(Cl)cc3C)CC2)c([C@@H](NC(=O)CCN(C)C)C(C)C)c1 . 4

Specify measured logD for CNCCN[C@H](c1cccc(F)c1N1CCN(C(=O)[C@H](C)Cc2ccc(Cl)cc2)CC1)C(C)C . 2.6

----------
Please provide measured concentration at 4 h for the entries that follow.
Assay: Drug level in mouse brain at 5 mg/kg, iv after 4 hrs
Format: ADME, organism-based
Design: dose 5 mg/kg, route intravenous
Settings: read-out: Drug uptake
Answer as a quantity: numeral, then unit.

Specify measured concentration at 4 h for CNCC(=O)N[C@H](c1cccc(F)c1N1CCN(C(=O)[C@H](C)Cc2ccc(Cl)cc2OC)CC1)C(C)C . 107 ng/g

Specify measured concentration at 4 h for CC(C)[C@H](NC(=O)CCN(C)C)c1cc(Cl)ccc1N1CCN(C(=O)[C@H](C)Cc2ccc(Cl)cc2)CC1 . 176 ng/g

Specify measured concentration at 4 h for CNCC(=O)N[C@H](c1cc(Cl)ccc1N1CCN(C(=O)[C@H](C)Cc2ccc(Cl)cc2)CC1)C(C)C . 62 ng/g

Specify measured concentration at 4 h for COc1cc(Cl)ccc1C[C@@H](C)C(=O)N1CCN(c2ccc(Cl)cc2[C@@H](NC(=O)C2CNC2)C(C)C)CC1 . 39 ng/g

Specify measured concentration at 4 h for COc1cc(Cl)ccc1C[C@@H](C)C(=O)N1CCN(c2ccc(Cl)cc2[C@@H](NC(=O)[C@@H](C)N)C(C)C)CC1 . 59 ng/g

Specify measured concentration at 4 h for CNCC(=O)N[C@H](c1cccc(F)c1N1CCN(C(=O)[C@H](C)Cc2ccc(Cl)cc2)CC1)C(C)C . 126 ng/g

Specify measured concentration at 4 h for CNCC(=O)N[C@H](c1cc(Cl)ccc1N1CCN(C(=O)[C@H](C)Cc2ccc(Cl)cc2OC)CC1)C(C)C . 102 ng/g

Specify measured concentration at 4 h for CC(C)[C@H](NC(=O)C1CN(C)C1)c1cc(Cl)ccc1N1CCN(C(=O)[C@H](C)Cc2ccc(Cl)cc2)CC1 . 77 ng/g
